For each entry below, report its T/C value.
- Tested on: CD2F1 mice, L1210 leukemia ip, survival T/C
- PROTOCOL_DESCRIPTION: NCI In Vivo Anticancer Drug Screen. Data for tumor model L1210 Leukemia (intraperitoneal) in CD2F1 (CDF1) mice
- CONDITION_CONTEXT: endpoint: mean survival time; dose: 200.0 mg/kg/injection; schedule: Q04DX002 (ip); vehicle: saline with Tween-80; higher = longer survival
Inconclusive results and toxic doses are left out.

Fill in: T/C of O=c1c([N+](=O)[O-])c[nH]c2ccccc12 is ___
95 % of control

For CCCCCOC(=O)COc1ccc(F)cc1F then?
105 % of control

For CCCCCCCCCCCCCCCCCc1nnc(-c2ccccc2O)o1 then?
112 % of control

For COc1cc(C2=N/C(=C\c3cc(Br)ccc3O)C(=O)O2)cc(OC)c1OC then?
96 % of control

For CC12CC(c3ccccc3)C(C)(C(c3ccccc3)=C1c1ccccc1)C2(O)c1ccccc1 (stereo unspecified) then?
86 % of control

For NC(=O)C1(C(N)=O)CCCCC1 then?
100 % of control
